Provenance of the data: ChEMBL document CHEMBL4513216

// values below are reported INHIBITION
Tested on: Plasmodium berghei
Test: Screen against P. berghei liver stage (PbLuc), transformed with Luciferase, at 10uM
Format: functional, HepG2
Settings: tested at 10 uM
Screen size: about 69,000 compounds; about 8,600 (12%) showed an effect of 50% or more. This is one part of a sample in which strong results are shown more often than they occur.

These recorded examples may help you get a feel for the data.
>>> df
                                   compound  result
0       Cn1ccnc1N1CCN(C(=O)Cc2ccc(F)cc2)CC1      0%
1  CC(C)CC(N)C1=NC(=C2N=CN=N2)NO1 (centres undefined)   37.7%
2  O=c1oc2ccccc2n1CCCN1CCCC1c1ccc(O)cc1 (centres undefined)   6.61%

The compound identified as CN1CCN(C(=O)c2occc2CN2C(=O)Cc3ccccc32)CC1 registered its INHIBITION at 37.9%

Sample O=c1c2ccccc2nnn1CN(CC1CCOC1)C1CC1 (centres undefined) ; INHIBITION observed: -5.92%

Record CCN(CC)CCn1c(=O)oc2ccccc21 . Reported INHIBITION: -5.1%

* * *

Tested on: Plasmodium berghei
Assay: Screen against P. berghei liver stage (PbLuc), transformed with Luciferase, at 10uM
Format: functional, HepG2
Conditions: tested at 10 uM
About 8,600 (12%) of roughly 69,000 compounds showed an effect of 50% or more. What follows is part of a selection rich in strong results, with near analogues and random picks from the rest.
Checkbox rule: INHIBITION lower than 40% = Met; INHIBITION not lower than 40% = Not met.

# example entries with known answers
In [3]: df
Out[3]:
                                   molecule    group
0  Cn1cccc1-c1cc(C(=O)NCCCc2csc(N)n2)[nH]n1      Met
1  Cc1ccc(-c2cc(C(=O)NCCN3CCCS3(=O)=O)[nH]n2)o1      Met
2   COc1ccc2c(C)c(C(=O)NCCCc3csc(N)n3)oc2c1  Not met
3  Cc1ccc(-c2cc(C(=O)NCCCc3csc(N)n3)[nH]n2)o1  Not met
4  COCC1CN(Cc2csc(C)n2)Cc2nccn2C1 (stereo unspecified)      Met

Now take the following molecule into account.
QUERY: is_below(INHIBITION, 40%) for Cc1[nH]c2c(F)cccc2c1CC(=O)NCCCc1csc(N)n1 ?
RESULT: Met

* * *

System: Plasmodium berghei
Assay: Screen against P. berghei liver stage (PbLuc), transformed with Luciferase, at 10uM
Type: functional, HepG2
Details: tested at 10 uM
About 8,600 (12%) of roughly 69,000 compounds showed an effect of 50% or more. The sample as a whole holds a higher share of strong results than the screen did.
value-kind: INHIBITION (%)
Value expressed in %; do not type the unit.

                                 compound  experimental_target  unit_descriptor  quantitative_result
0  Cc1cc(NC(=O)N(Cc2ccc(C#N)cc2)C(C)C)no1   Plasmodium berghei                %                 6.33

The compound CCN1CCCC(O)(CN(C)Cc2c(C)nn(C)c2C)C1 (configuration not stated) , when measured on Plasmodium berghei, yielded INHIBITION of 42.4

The reported Plasmodium berghei INHIBITION of C=c1cc(C)oc1=C1NC(c2c(C)ncc3c2CCNC3)=NO1 is 49

Kindly note: Plasmodium berghei, CC(C)N(Cc1ccc(C#N)cc1)C(=O)Nc1ccncc1 , INHIBITION value reported: 44

Reported INHIBITION (Plasmodium berghei) for entry Cc1cc2ccccc2n1CCC(=O)N1CCC2(CC1)CNC(=O)C2 is 29.4

Reported INHIBITION (Plasmodium berghei) for entry CC(C)N(Cc1ccc(C#N)cc1)C(=O)NCCNc1ncccn1 is 55.1

Let me check: CC(C)N(Cc1ccc(C#N)cc1)C(=O)Nc1ccccn1 , system Plasmodium berghei, measured INHIBITION is 54.3

Plasmodium berghei assay, compound CC(C)N(Cc1cccnc1)C(=O)CSc1ccc(C#N)cc1 , recorded INHIBITION = 2.82

Per the reported Plasmodium berghei data, COc1ccc(CC(=O)N2CCCC(n3cc(C)cn3)C2)c(OC)c1 (configuration not stated) has INHIBITION of 7.08

Given the compound CC(=O)CSc1sc2c(O)cc(=O)[nH]c2c1C(N)=O and test system Plasmodium berghei, the measured INHIBITION is 26

Entry CC(C)CNC(=O)c1cc(C2CC2)nc2c1c(C1CCCN1)nn2C (configuration not stated) ; assay system Plasmodium berghei; INHIBITION recorded at 30

Let me check: O=C1NCC2(CCCN(C(=O)CCn3cnc4ccccc43)CC2)O1 (configuration not stated) , system Plasmodium berghei, measured INHIBITION is 35.8
